Data origin: patent US20260042764A1

Each item that follows carries a reported IC50.
# assayedSystem: Avi-KRAS WT (2-169) GTP/RAF1 RBD-3xFLAG (51-131) (Homo sapiens, UniProt P01116)
# Construct: Avi-KRAS WT (2-169)
# Sequence (P01116 2-169 isoform P01116-2): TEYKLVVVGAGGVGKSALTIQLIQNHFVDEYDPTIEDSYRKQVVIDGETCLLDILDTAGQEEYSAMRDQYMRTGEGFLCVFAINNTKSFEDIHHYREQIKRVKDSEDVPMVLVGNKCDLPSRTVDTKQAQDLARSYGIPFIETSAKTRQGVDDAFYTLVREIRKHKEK
# methodNotes: Raf1-KRAS WT-GTP disruption HTRF assay (Biological Example 3)
# Format: binding
# runParameters: KRAS WT, GTP-loaded

>  <compound>
N#Cc1c(N)sc2c(F)ccc(-c3c(C(F)(F)F)cc4c(N5CC6CC(C5)O6)nc(OC[C@@]56CCCN5C[C@H](F)C6)nc4c3F)c12 (single isomer, unassigned) [Compound 275]

>  <IC50>
100 to 1000 nM

$$$$
>  <compound>
CCN(c1nc(OC[C@@]23CCCN2C[C@H](F)C3)nc2c(F)c(-c3ccc(F)c4sc(N)c(C#N)c34)c(C(F)(F)F)cc12)[C@H]1C[C@H]2CN(CC(F)(F)F)C(=O)N2C1 (atropisomer, axis not shown)

>  <IC50>
100 to 1000 nM

$$$$
>  <compound>
CCN(c1nc(OC[C@@]23CCCN2C[C@H](F)C3)nc2c(F)c(-c3ccc(F)c4sc(N)c(C#N)c34)c(C(F)(F)F)cc12)[C@H]1CCN(C(=O)C(CF)CF)C1 (atropisomer, axis not shown)

>  <IC50>
100 to 1000 nM

$$$$
>  <compound>
CN(C)C(=O)N1CC[C@H](N(CCF)c2nc(OC[C@@]34CCCN3C[C@H](F)C4)nc3c(F)c(-c4ccc(F)c5sc(N)c(C#N)c45)c(C(F)(F)F)cc23)C1 (atropisomer, axis not shown)

>  <IC50>
1000 to 10000 nM

$$$$

Please examine the following record next.
*Q* Request the reported IC50 associated with CCN(c1nc(OC[C@@]23CCCN2C[C@H](F)C3)nc2c(F)c(-c3ccc(F)c4sc(N)c(C#N)c34)c(C(F)(F)F)cc12)[C@H]1CCN(C(=O)C2C[C@H]2F)[C@@H]1C (some centres unmarked)
*A* 100 to 1000 nM
